Item-by-item account of K0.5-mut/K0.5-wt
- target entity: antithrombin III (plasma purified human AT-III), in complex with unfractionated heparin
Please give only the number in your answer, with no unit.

[[record]]
protein = "FIXa-D104N/K106S/R318Y/R338E/E410N (protein) chain 1: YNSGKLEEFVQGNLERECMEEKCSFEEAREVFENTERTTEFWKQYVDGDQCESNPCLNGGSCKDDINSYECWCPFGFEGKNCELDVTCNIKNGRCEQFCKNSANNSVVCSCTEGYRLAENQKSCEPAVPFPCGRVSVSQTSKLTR chain 2: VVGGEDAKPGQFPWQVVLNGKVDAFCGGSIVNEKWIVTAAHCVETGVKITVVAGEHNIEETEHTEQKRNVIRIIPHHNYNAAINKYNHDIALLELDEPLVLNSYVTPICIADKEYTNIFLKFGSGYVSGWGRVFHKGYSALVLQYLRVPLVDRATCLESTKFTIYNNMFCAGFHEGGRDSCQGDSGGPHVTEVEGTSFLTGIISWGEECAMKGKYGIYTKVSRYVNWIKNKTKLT"
recorded_measurement = 327


Now for the protein whose K0.5-mut/K0.5-wt we want.
Determine from records and report K0.5-mut/K0.5-wt for FIXa-D203N/F205T/E410N (protein) chain 1: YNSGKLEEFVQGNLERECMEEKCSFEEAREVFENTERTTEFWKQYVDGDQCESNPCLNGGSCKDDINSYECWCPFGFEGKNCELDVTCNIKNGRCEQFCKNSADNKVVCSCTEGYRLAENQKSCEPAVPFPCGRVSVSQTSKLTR chain 2: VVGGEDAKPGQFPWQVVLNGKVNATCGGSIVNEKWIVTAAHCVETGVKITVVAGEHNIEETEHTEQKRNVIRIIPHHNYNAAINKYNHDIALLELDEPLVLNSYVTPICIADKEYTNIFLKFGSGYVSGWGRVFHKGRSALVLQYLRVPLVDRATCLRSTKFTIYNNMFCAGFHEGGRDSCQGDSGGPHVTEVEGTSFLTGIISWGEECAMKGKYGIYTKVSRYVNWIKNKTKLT
19.5

Numbers sourced from patent US20210230570.
